These measurements were taken from the supplement of paper PMC8617591.

test system: Mycobacterium tuberculosis Erdman (autoluminescent); experiment: GRinf, maximum normalised growth rate inhibition (unitless (-1 to 1)); higher = less effect (negative = killing); conditions: in vitro model: cholesterol 0.05 mM; time point: terminal (~4-5 doublings, model-specific)
Recorded measurements of GRinf, one per entry
endpoint: GRinf

- NNC(=O)c1ccncc1 [isoniazid] + CO[C@H]1/C=C/O[C@@]2(C)Oc3c(C)c(O)c4c(O)c(c(/C=N/N5CCN(C)CC5)c(O)c4c3C2=O)NC(=O)/C(C)=C\C=C\[C@H](C)[C@H](O)[C@@H](C)[C@@H](O)[C@@H](C)[C@H](OC(C)=O)[C@@H]1C [rifampicin]: -0.0891
- O=[N+]([O-])c1cn2c(n1)OC[C@@H](OCc1ccc(OC(F)(F)F)cc1)C2 [pretomanid] + CO[C@H]1/C=C/O[C@@]2(C)Oc3c(C)c(O)c4c(O)c(c(/C=N/N5CCN(C)CC5)c(O)c4c3C2=O)NC(=O)/C(C)=C\C=C\[C@H](C)[C@H](O)[C@@H](C)[C@@H](O)[C@@H](C)[C@H](OC(C)=O)[C@@H]1C [rifampicin]: -0.0976
- CC[C@@H](CO)NCCN[C@@H](CC)CO [ethambutol] + CO[C@H]1/C=C/O[C@@]2(C)Oc3c(C)c(O)c4c(O)c(c(/C=N/N5CCN(C6CCCC6)CC5)c(O)c4c3C2=O)NC(=O)/C(C)=C\C=C\[C@H](C)[C@H](O)[C@@H](C)[C@@H](O)[C@@H](C)[C@H](OC(C)=O)[C@@H]1C [rifapentine]: -0.163
